# Organism: Rattus norvegicus
# assay.text: DrugMatrix - Regimen: Daily Repeat
# Type: toxicity, organism-based, Sprague-Dawley
# Parameters: regimen Daily Repeat, gender Male, age 6-8 weeks
# run.conditions: in vivo, po, 0 mg/kg, 72 h, tissue Blood, route oral GAVAGE, dose level Control, time 3 day, […]
measured.attribute: PLATELET COUNT (x10E3/uL)
Report only the number, with the unit x10E3/uL understood.

{"compound": "O=C(O)CCCc1ccc(N(CCCl)CCCl)cc1", "units.symbol": "x10E3/uL", "PLATELET COUNT": 1274.5}
{"compound": "Cc1oncc1C(=O)Nc1ccc(C(F)(F)F)cc1 [LEFLUNOMIDE]", "units.symbol": "x10E3/uL", "PLATELET COUNT": 896}
{"compound": "C[C@H]1O[C@@H](O[C@H]2[C@@H](O)C[C@H](O[C@H]3[C@@H](O)C[C@H](O[C@H]4CC[C@@]5(C)[C@H](CC[C@@H]6[C@@H]5C[C@@H](O)[C@]5(C)[C@@H](C7=CC(=O)OC7)CC[C@]65O)C4)O[C@@H]3C)O[C@@H]2C)C[C@H](O)[C@@H]1O", "units.symbol": "x10E3/uL", "PLATELET COUNT": 1054.17}

Task: # return recorded PLATELET COUNT for entry "CC(C)(Oc1ccc(Cl)cc1)C(=O)O"
Output: 1329.67

Task: # return recorded PLATELET COUNT for entry CCC(C)n1ncn(-c2ccc(N3CCN(c4ccc(OCC5COC(Cn6cncn6)(c6ccc(Cl)cc6Cl)O5)cc4)CC3)cc2)c1=O (centres undefined)
Output: 1274.5

Task: # return recorded PLATELET COUNT for entry "OC(Cn1cncn1)(Cn1cncn1)c1ccc(F)cc1F"
Output: 1274.5

Task: # return recorded PLATELET COUNT for entry CCOC(=O)C1=C(COCCN)NC(C)=C(C(=O)OC)C1c1ccccc1Cl (centres undefined)
Output: 997.5

Task: # return recorded PLATELET COUNT for entry "C[C@@H]1CN(c2c(F)c(N)c3c(=O)c(C(=O)O)cn(C4CC4)c3c2F)C[C@H](C)N1"
Output: 997.5
